Assign viscosity to each entry below.
- stated-conditions: 313.15 K; 101.33 kPa; Liquid; Concentric cylinders viscometry
Write it as a number; the unit mPa·s goes unstated.

Q: Requested read-out: viscosity. Entry: CCC(=O)[NH+](C)C.O=S(=O)([N-]S(=O)(=O)C(F)(F)F)C(F)(F)F
A: 57.92

Q: Requested read-out: viscosity. Entry: CCC(=O)N(C)C [N,N-dimethylpropionamide]
A: 0.778

Q: Requested read-out: viscosity. Entry: CC(=O)N(C)C [N,N-dimethylethanamide]
A: 0.772

Q: Requested read-out: viscosity. Entry: CN(C)C=O [dimethylformamide]
A: 0.684

Q: Requested read-out: viscosity. Entry: CC(=O)[NH+](C)C.O=S(=O)([N-]S(=O)(=O)C(F)(F)F)C(F)(F)F [N,N-dimethylacetamidium bis(trifluoromethanesulfonyl)amide]
A: 67.83
